biological target: Protein cereblon/Bromodomain-containing protein 4 (Homo sapiens, UniProt O60885+Q96SW2); experiment: PROTAC activity at CRBN/BRD4 in HEK293 cells assessed as induction of BRD4 degradation by measuring maximal efficacy incubated for 24 hrs by HTRF assay relative to control; format: cell-based
Sequence (Q96SW2 whole entry, looked up, other chains not shown): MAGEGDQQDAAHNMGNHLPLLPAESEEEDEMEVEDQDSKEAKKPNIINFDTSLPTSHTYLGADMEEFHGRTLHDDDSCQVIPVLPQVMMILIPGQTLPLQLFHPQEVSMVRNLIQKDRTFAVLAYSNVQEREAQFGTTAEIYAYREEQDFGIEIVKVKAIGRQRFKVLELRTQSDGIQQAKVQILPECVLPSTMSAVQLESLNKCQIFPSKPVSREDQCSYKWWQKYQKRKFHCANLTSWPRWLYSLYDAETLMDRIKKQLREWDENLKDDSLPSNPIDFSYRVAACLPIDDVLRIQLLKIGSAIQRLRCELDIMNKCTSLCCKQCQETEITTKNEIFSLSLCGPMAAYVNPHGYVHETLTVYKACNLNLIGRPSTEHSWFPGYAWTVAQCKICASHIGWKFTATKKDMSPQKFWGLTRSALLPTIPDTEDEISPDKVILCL
Field: Emax. Provide a value for each of the compounds that follow.
Give bare numbers, in %.

Some compounds with known Emax results, for comparison:
Cc1sc2c(c1C)C(c1ccc(Cl)cc1)=N[C@@H](CC(=O)NCCCCNC(=O)COc1cccc3c1C(=O)N(C1CCC(=O)NC1=O)C3=O)c1nnc(C)n1-2 (stereo partly drawn)	80
Cc1sc2c(c1C)C(c1ccc(Cl)cc1)=N[C@@H](CC(=O)CCCCNC(=O)COc1cccc3c1C(=O)N(C1CCC(=O)NC1=O)C3=O)c1nnc(C)n1-2 (stereo partly drawn)	85

Proceeding to the next compound to report its Emax.
Task: Give its Emax value. Item: Cc1sc2c(c1C)C(c1ccc(Cl)cc1)=N[C@@H](CC(=O)OCCCCNC(=O)COc1cccc3c1C(=O)N(C1CCC(=O)NC1=O)C3=O)c1nnc(C)n1-2 (stereo partly drawn)
Result: 83

====

Field: chromatographic logD. Provide a value for each of the compounds that follow.
assay: Chromatographic hydrophobicity index, logD of the compound at pH 7.4; type: physicochemical; details: buffer
One number for each entry.

Cc1sc2c(c1C)C(c1ccc(Cl)cc1)=N[C@@H](CC(=O)NCCCCNC(=O)COc1cccc3c1C(=O)N(C1CCC(=O)NC1=O)C3=O)c1nnc(C)n1-2 (stereo partly drawn)	2.16
Cc1ncsc1-c1ccc(CNC(=O)[C@@H]2C[C@@H](O)CN2C(=O)[C@H](C(C)C)N2Cc3ccccc3C2=O)c(OCCCOCCCC[C@@H]2N=C(c3ccc(Cl)cc3)c3c(sc(C)c3C)-n3c(C)nnc32)c1	3.38
Cc1sc2c(c1C)C(c1ccc(Cl)cc1)=N[C@@H](CC(=O)OCCCCNC(=O)COc1cccc3c1C(=O)N(C1CCC(=O)NC1=O)C3=O)c1nnc(C)n1-2 (stereo partly drawn)	2.68
Cc1ncsc1-c1ccc(CNC(=O)[C@@H]2C[C@@H](O)CN2C(=O)[C@H](C(C)C)N2Cc3ccccc3C2=O)c(OCCCOCCNCC[C@@H]2N=C(c3ccc(Cl)cc3)c3c(sc(C)c3C)-n3c(C)nnc32)c1	2.3
Cc1sc2c(c1C)C(c1ccc(Cl)cc1)=N[C@@H](CCCCCNC(=O)COc1cccc3c1C(=O)N(C1CCC(=O)NC1=O)C3=O)c1nnc(C)n1-2 (stereo partly drawn)	2.81

Please give chromatographic logD for each item listed below.
1. Cc1ncsc1-c1ccc(CNC(=O)[C@@H]2C[C@@H](O)CN2C(=O)[C@H](C(C)C)N2Cc3ccccc3C2=O)c(OCCCOCCOC(=O)C[C@@H]2N=C(c3ccc(Cl)cc3)c3c(sc(C)c3C)-n3c(C)nnc32)c1
2. Cc1ncsc1-c1ccc(CNC(=O)[C@@H]2C[C@@H](O)CN2C(=O)[C@H](C(C)C)N2Cc3ccccc3C2=O)c(OCCCOCCNC(=O)C[C@@H]2N=C(c3ccc(Cl)cc3)c3c(sc(C)c3C)-n3c(C)nnc32)c1
3. Cc1sc2c(c1C)C(c1ccc(Cl)cc1)=N[C@@H](CC(=O)CCCCNC(=O)COc1cccc3c1C(=O)N(C1CCC(=O)NC1=O)C3=O)c1nnc(C)n1-2 (stereo partly drawn)

Result:
1: 3.25; 2: 2.78; 3: 2.57
